methodDescription: Phase 2a trial: plasma and fecal concentrations (PK)
Assay type: in vivo, human
assayContext: human, stool, oral, 450 mg; CDI patients; read-out: stool concentration two days after EOT
assayReadout: concentration at 2 days after EOT (ng/g)

INSERT INTO measurements (entrysmiles, assayreadout, outputunit, result) VALUES
  ('O=c1[nH]c(NCc2ccc(Cl)c(Cl)c2)nc2ncn(CCN3CCOCC3)c12', 'concentration at 2 days after EOT', 'ng/g', 535000);

----------
methodDescription: Phase 2a trial: plasma and fecal concentrations (PK)
Format: in vivo, human
assayContext: human, plasma, oral; CDI patients; 450 mg twice daily; read-out: plasma levels 2-hour post-dose
assayReadout: concentration at 2 h

INSERT INTO results (compound, result) VALUES
  ('O=c1[nH]c(NCc2ccc(Cl)c(Cl)c2)nc2ncn(CCN3CCOCC3)c12 [Ibezapolstat]', '234 to 299 ng/mL');

Cited source for all entries: patent US12036225B2
